# Tested on: norovirus GI.7 VLP (VP1) (Norovirus GI.7)
# test-details: filter binding
# assay-context: FRA: 1 nM 32P-aptamer, 0-1500 nM VLP, 60 min, each aptamer's original selection buffer (M1, M6-2, SMV19, SMV21: PBS pH 7.4; others in Table S1, not in material)
measured-attribute: pKd
pKd is defined as minus the log10 of a concentration measured in mol/L.

Lookup: Output measured pKd for this item: GTCTGTAGTAGGGAGGATGGTCCGGGGCCCCGAGACGACGTTATCAGGC [Beier]
Found: 7.20

###

# Tested on: norovirus GII.4 New Orleans VLP (VP1) (Norovirus GII.4 New Orleans)
# test-details: filter binding
# assay-context: FRA: 1 nM 32P-aptamer, 0-1500 nM VLP, 60 min, each aptamer's original selection buffer (M1, M6-2, SMV19, SMV21: PBS pH 7.4; others in Table S1, not in material)
Checkbox rule: Kd lower than 900 nM = met; Kd not lower than 900 nM = not met.

Lookup: Please state whether Kd is below 900 nM for GAAATTGGGTTCGGGTTTGGGTTGGGATTACTTAGCGATG [Buf-2]
Found: met

Lookup: Please state whether Kd is below 900 nM for TGGGAAGAGGTCCGGTAAATGCAGGGTCAGCCCGGAGAG [M6-2]
Found: not met

Lookup: Please state whether Kd is below 900 nM for CCATGTTTTGTAGGTGTAATAGGTCATGTTAGGGTTTCTG [SMV21]
Found: not met

Lookup: Please state whether Kd is below 900 nM for GCTAGCGAATTCCGTACGAAGGGCGAATTCCACATTGGGCTGCAGCCCGGGGGATCC [AG3]
Found: not met

Lookup: Please state whether Kd is below 900 nM for TGTTTATGGGGATAAACGTATCTAATTCGTGTACTAATCA [M1]
Found: not met

Lookup: Please state whether Kd is below 900 nM for GTCTGTAGTAGGGAGGATGGTCCGGGGCCCCGAGACGACGTTATCAGGC [Beier]
Found: met

Lookup: Please state whether Kd is below 900 nM for CACCAGTGTGTTGAGGTTTGAGCACACTGATAGAGTGTCA [SMV19]
Found: not met

###

pKd reference
# System: norovirus GII.4 Sydney VLP (VP1) (Norovirus GII.4 Sydney)
# test-details: filter binding
# assay-context: FRA: 1 nM 32P-aptamer, 0-1500 nM VLP, 60 min, each aptamer's original selection buffer (M1, M6-2, SMV19, SMV21: PBS pH 7.4; others in Table S1, not in material)
pKd is defined as minus the log10 of a concentration measured in mol/L.

Examples from the recorded data:
{"biosequence": "GCTAGCGAATTCCGTACGAAGGGCGAATTCCACATTGGGCTGCAGCCCGGGGGATCC [AG3]", "value": 6.50}
{"biosequence": "TGTTTATGGGGATAAACGTATCTAATTCGTGTACTAATCA [M1]", "value": 6.41}
{"biosequence": "CCATGTTTTGTAGGTGTAATAGGTCATGTTAGGGTTTCTG [SMV21]", "value": 5.90}
{"biosequence": "TGGGAAGAGGTCCGGTAAATGCAGGGTCAGCCCGGAGAG [M6-2]", "value": 5.95}
{"biosequence": "GTCTGTAGTAGGGAGGATGGTCCGGGGCCCCGAGACGACGTTATCAGGC [Beier]", "value": 7.15}

Lookup: Output measured pKd for this item: GAAATTGGGTTCGGGTTTGGGTTGGGATTACTTAGCGATG [Buf-2]
Found: 6.62
